Known inhibition of a selection of compounds
Test: M. tuberculosis growth inhibition, HTS (AID 1259417);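 further: bacteria grown with compound for 5 days at 37 °C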
Conditions: M. tuberculosis DsRed fluorescence growth inhibition; stronger effect = higher value; concentration not given here
Hit rate of the full screen: of about 1,100 compounds, about 760 (69%) were called active. So high a share suggests a set chosen from earlier hits. This is one part of the list.
readout: inhibition (%)

>  <molecule>
CCCCOC(=O)COc1ccc2c(=O)c(Oc3ccc(OCC)cc3)c(C)oc2c1

>  <quantitative.readout>
31.4

$$$$
>  <molecule>
CCOC(=O)COc1ccc(C=C2Oc3cc(OC)ccc3C2=O)cc1

>  <quantitative.readout>
60.8

$$$$
>  <molecule>
COc1ccc(-c2nnc(SCC(=O)OC3CCCCC3)o2)cc1OC

>  <quantitative.readout>
50.5

$$$$
>  <molecule>
CCOC(=O)COc1ccc2c(=O)c(Oc3cnn(-c4ccccc4)c3)c(C)oc2c1

>  <quantitative.readout>
79

$$$$
>  <molecule>
O=C(CSc1nnc(-c2cccs2)o1)OC1CCCCC1

>  <quantitative.readout>
28.2

$$$$
>  <molecule>
CCOC(=O)COc1cccc(C=C2Oc3cc(OC)ccc3C2=O)c1

>  <quantitative.readout>
31.7

$$$$

Cited source for all entries: PubChem BioAssay AID1259417
